Cited source: PubChem BioAssay AID2685

assay: qHTS Assay for Lipid Storage Modulators in Drosophila S3 Cells; conditions: BODIPY lipid droplet fluorescence, 18-24 h, cells fed with added oleic acid; measured here: cell count max response;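 note: cells counted by Cell Tracker Red CMTPX staining in the red channel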
The whole screen tested about 320,000 compounds, of which about 2,100 (0.66%) were called active. About 53% were inconclusive and are not listed. Shown is part of a subset that was picked to be rich in actives.
Listing: cell number change of selected compounds
The answer is to be given in %; state only the numeric part.

Known cell number change results, listed for orientation:
> print(dat)
                                   compound  unit.symbol  numeric.readout
1  CCOc1ccc2c(c1)C(C)=CC(C)(C)N2S(=O)(=O)c1ccc(NC(C)=O)cc1            %            -18.1
2      N/C(=N\OC(=O)c1cccc2ccccc12)c1cccnc1            %             18.1

Q) Returns the measured cell number change for the input compound. Input: C(=NC12CN3CN(CN(C3)C1)C2)c1ccc2c(c1)OCO2
A) -2.59

Q) Returns the measured cell number change for the input compound. Input: COc1cccc(CC(=O)N(CCC2=CCCCC2)c2c(N)n(Cc3ccccc3)c(=O)[nH]c2=O)c1
A) -11.8

Q) Returns the measured cell number change for the input compound. Input: CCOC(=O)C1CCN(C(=O)Cn2cc(C(=O)C3CC3)c3ccccc32)CC1
A) 3.64

Q) Returns the measured cell number change for the input compound. Input: Cc1ccccc1OC(C)C(=O)N1CCC(Cc2ccccc2)CC1 (configuration not stated)
A) 12.1

Q) Returns the measured cell number change for the input compound. Input: CC(=O)Oc1ccc(N2C(=O)[C@@H]3[C@H](C2=O)[C@H]2c4ccccc4C=NN2[C@@H]3C(C)=O)cc1
A) 17.5

Q) Returns the measured cell number change for the input compound. Input: COc1ccc(N(CC(=O)N/N=C/c2cc3ccc(OC)cc3nc2Cl)S(=O)(=O)c2ccccc2)cc1
A) 5.98

Q) Returns the measured cell number change for the input compound. Input: CC(=O)Nc1cccc(C(=O)NC(C)c2ccc(S(N)(=O)=O)cc2)c1 (configuration not stated)
A) 21.3

Q) Returns the measured cell number change for the input compound. Input: CCOC(=O)c1ccc(NC(=S)N2CCCC(C)C2)cc1 (configuration not stated)
A) 4.19

Q) Returns the measured cell number change for the input compound. Input: COc1ccc(/C=C2\Cc3ccccc3C2=O)cc1OC
A) -17.4

Q) Returns the measured cell number change for the input compound. Input: N/C(=N\OC(=O)c1cccc2ccccc12)c1ccc(Br)cc1
A) 18.1

Q) Returns the measured cell number change for the input compound. Input: CCOc1ccc2c(c1)C(C)=CC(C)(C)N2S(=O)(=O)c1ccc(C)cc1
A) -19.8

Q) Returns the measured cell number change for the input compound. Input: COc1ccc(CC(NC(C)=O)C(=O)NC2CCN(c3nnnn3-c3ccccc3)CC2)cc1OC (configuration not stated)
A) -4.36

Q) Returns the measured cell number change for the input compound. Input: CN1CCN(C2CCN(Cc3ccc(O)c4ncccc34)CC2)CC1
A) 8.98

Q) Returns the measured cell number change for the input compound. Input: COc1cccc(/C=N/n2nnnc2N)c1O
A) 2.87

Q) Returns the measured cell number change for the input compound. Input: COc1ccc2c(c1)C(C)=CC(C)(C)N2S(=O)(=O)c1ccc(C)cc1
A) 5.92
